System: Human Microvascular Endothelial Cells (HMVEC)
Assay comment: Endothelial cell migration assay (modified Boyden chamber, bFGF-stimulated)
Assay type: cell-based
Test parameters: bFGF in upper chamber, 4 hours at 37 °C, percent inhibition of migration compared to a positive control
Entries and their measured % inhibition at 200 nM test compound follow.
Measure: % inhibition at 200 nM test compound (%)

>>> print(df.to_string())
                                   compound                                    target  comparative_sign  test_value
0  CC(=O)NC(CCCCN)C(=O)Nc1ccc(C(=O)N[C@@H](CC(N)=O)C(=O)O)c(-c2ccccc2)c1 (some centres unmarked)  Human Microvascular Endothelial Cells (HMVEC)                 >          95
1  COC(=O)c1ccc(NC(=O)[C@@H](CCCCN)NC(=O)OC(C)(C)C)cc1-c1ccccc1O  Human Microvascular Endothelial Cells (HMVEC)                 =          80
2  COC(=O)c1ccc(NC(=O)[C@H](CCCCNC(=O)OCc2ccccc2)NC(C)=O)cc1-c1cccc(OCc2ccccc2)c1  Human Microvascular Endothelial Cells (HMVEC)                 =          29
3  NC(CCCCNC(=O)OCc1ccccc1)C(=O)Nc1ccc(CC(=O)N[C@@H](CC(=O)O)C(=O)O)cc1 (some centres unmarked)  Human Microvascular Endothelial Cells (HMVEC)                 =          34
4  CC(=O)NC(CCCCN)C(=O)Nc1ccc(C(=O)N[C@@H](CC(N)=O)C(=O)O)cc1 (some centres unmarked)  Human Microvascular Endothelial Cells (HMVEC)                 =          90

Recorded values, source patent EP1080070B1.
